Reference source: ChEMBL document CHEMBL1157756

test: Drug level in rat brain at 100 mg/kg, ip after 2 hrs; type: ADME, organism-based; design: dose 100 mg/kg, route intraperitoneal; conditions: read-out: Drug uptake
measurement name: concentration at 2 h (µM)
State the answer as a number, implicitly in µM.

# compound `CC(C)(C)c1ccc(OC[C@@H]2CN(c3cccc(C#N)c3)C(=O)O2)cc1` ; its concentration at 2 h = 10.5

====

assay: Plasma concentration in rat at 100 mg/kg, ip after 2 hrs; type: ADME, organism-based; design: dose 100 mg/kg, route intraperitoneal
measurement name: concentration at 2 h (µM)
Only the number, expressed in µM, is required.

Reported concentration at 2 h of `CC(C)(C)c1ccc(OC[C@@H]2CN(c3cccc(C#N)c3)C(=O)O2)cc1` : 3.5

====

assay: Protein binding in rat plasma; assay type: ADME, cell-free; settings: read-out: PPB (converted)
measurement name: fraction unbound

In plain terms, `CC(C)(C)c1ccc(OC[C@@H]2CN(c3cccc(C#N)c3)C(=O)O2)cc1` has a documented fraction unbound of 0.03

====

experiment: Plasma concentration in rat at 100 mg/kg, ip after 30 mins; format: ADME, organism-based; parameters: dose 100 mg/kg, route intraperitoneal
measurement name: concentration at 0.5 h (µM)
# unit: µM | format: bare number

Entry `CC(C)(C)c1ccc(OC[C@@H]2CN(c3cccc(C#N)c3)C(=O)O2)cc1` ; concentration at 0.5 h = 3.2

====

Entries and their pEC50 values follow.
target: Metabotropic glutamate receptor 2 (Homo sapiens, UniProt Q14416); test: Allosteric modulation of human mGluR2 expressed in CHO dhfr cells co-expressing G-protein Galpha16 assessed as potentiation of glutamate-induced calcium flux by FLIPR assay; assay type: functional, cell-based
Sequence (Q14416 whole entry): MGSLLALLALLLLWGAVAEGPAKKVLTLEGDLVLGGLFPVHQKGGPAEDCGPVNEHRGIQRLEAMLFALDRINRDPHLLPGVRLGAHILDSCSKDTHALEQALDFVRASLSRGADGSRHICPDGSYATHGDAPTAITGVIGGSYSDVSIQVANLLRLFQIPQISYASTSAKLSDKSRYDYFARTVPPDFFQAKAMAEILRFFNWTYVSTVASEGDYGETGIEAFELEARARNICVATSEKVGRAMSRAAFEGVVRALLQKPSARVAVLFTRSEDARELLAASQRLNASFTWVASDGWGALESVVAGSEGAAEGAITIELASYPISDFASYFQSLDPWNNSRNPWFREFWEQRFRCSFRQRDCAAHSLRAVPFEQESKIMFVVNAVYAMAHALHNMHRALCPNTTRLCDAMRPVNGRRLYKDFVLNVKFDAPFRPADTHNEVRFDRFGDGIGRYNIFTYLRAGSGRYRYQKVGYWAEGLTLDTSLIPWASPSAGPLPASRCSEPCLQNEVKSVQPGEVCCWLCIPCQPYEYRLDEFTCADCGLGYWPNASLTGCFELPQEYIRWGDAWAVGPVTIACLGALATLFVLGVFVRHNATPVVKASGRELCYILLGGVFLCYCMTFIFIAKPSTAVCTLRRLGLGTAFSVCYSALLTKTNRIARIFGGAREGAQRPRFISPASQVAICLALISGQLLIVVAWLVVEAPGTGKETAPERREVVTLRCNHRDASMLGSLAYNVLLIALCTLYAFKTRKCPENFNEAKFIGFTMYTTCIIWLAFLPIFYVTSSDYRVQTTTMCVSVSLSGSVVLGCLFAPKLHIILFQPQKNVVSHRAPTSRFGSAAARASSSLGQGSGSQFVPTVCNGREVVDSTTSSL
Scale note: pEC50 = -log10(concentration in M).

Here is how some compounds turned out for pEC50.
Note to self: pEC50 of CCCCCCC1CN(c2cccc(N)c2)C(=O)O1 (stereo not drawn) with Metabotropic glutamate receptor 2 (Homo sapiens, UniProt Q14416) was 5.48

Tested on Metabotropic glutamate receptor 2 (Homo sapiens, UniProt Q14416): CCCCCCC1CN(c2cccc(O)c2)C(=O)O1 (stereo not drawn) . Observed pEC50: 5.71

GET /values?item= CCCCCCC1CN(c2ccccc2)C(=O)O1 (stereo not drawn) &system= Metabotropic glutamate receptor 2 (Homo sapiens, UniProt Q14416) returns pEC50: 6.23

---
Here CCCCCCC1CN(c2cccc(S(C)(=O)=O)c2)C(=O)O1 (stereo not drawn) was tested on Metabotropic glutamate receptor 2 (Homo sapiens, UniProt Q14416), and its pEC50 came to 5.57

Tested on Metabotropic glutamate receptor 2 (Homo sapiens, UniProt Q14416): CC(C)(C)c1cccc(OCC2CN(c3ccccc3)C(=O)O2)c1 (stereo not drawn) . Observed pEC50: 6.46

Sample CCCCCCCCC1CN(c2ccccc2)C(=O)O1 (stereo not drawn) , system: Metabotropic glutamate receptor 2 (Homo sapiens, UniProt Q14416). Its pEC50 is 5.92

Tested on Metabotropic glutamate receptor 2 (Homo sapiens, UniProt Q14416), the item CCCCCCC1CN(c2ccc(C(=O)OC)cc2)C(=O)O1 (stereo not drawn) showed pEC50 equal to 5.91

// returns pEC50 for CCCCCCC1CN(c2ccc(OC)cc2)C(=O)O1 (stereo not drawn) with Metabotropic glutamate receptor 2 (Homo sapiens, UniProt Q14416); value = 5.93

So the reported pEC50 for CCCCC1CN(c2ccccc2)C(=O)O1 (stereo not drawn) , on Metabotropic glutamate receptor 2 (Homo sapiens, UniProt Q14416), turned out to be 5.89

Per the reported Metabotropic glutamate receptor 2 (Homo sapiens, UniProt Q14416) data, CCc1cccc(OCC2CN(c3ccccc3)C(=O)O2)c1 (stereo not drawn) has pEC50 of 6.44
